Experiment: acute toxicity (LD50), rat
Conditions: rat, in vivo, ip, LD50 and 95% conf. lim., HCl; female rat; intraperit.
Assay readout: LD50 (mg/kg)
Field format: number, assumed mg/kg, no unit text.

Entry Clc1ccc(C(OCCN2CCCCC2)c2ccccc2)cc1 (single isomer, unassigned) [L-CLO, L(-) cloperastine] , LD50 reported as 195

---

Assay: acute toxicity (LD50), mouse
Conditions: mouse, in vivo, po, LD50 and 95% conf. lim., HCl; female mouse
Assay readout: LD50 (mg/kg)
Field format: number, assumed mg/kg, no unit text.

Entry Clc1ccc(C(OCCN2CCCCC2)c2ccccc2)cc1 (single isomer, unassigned) [L-CLO, L(-) cloperastine] , LD50 reported as 512
